- PROTOCOL_NOTES: PSAC antagonists in infected red cells, primary screen, cell-based, P. falciparum Indochina, OD700, 1 h (AID 1154)
- CONDITION_NOTES: P. falciparum Indochina infected RBC osmotic lysis, higher = more signal, called active from +8 up or from −8 down
Each record here notes measured z-score.
Give your answer as a number; write no unit.

{"COMPOUND": "COc1ccc(NC(=O)O[C@H]2[C@H](OC(=O)Nc3ccc4c(c3)OCO4)[C@H](OC(=O)Nc3ccc4c(c3)OCO4)[C@@H](OC)O[C@@H]2CO)cc1", "OBSERVED_RESULT": 13.7}
{"COMPOUND": "CCCCC(O)C1C=CC2C(=O)N(C)C(=O)C2N1Nc1ccccc1 (stereo not drawn)", "OBSERVED_RESULT": -0.242}
{"COMPOUND": "CCCCC(=C=CC[C@@H](O)c1ccc(OCCO)cc1)C[C@@H](O)c1ccccn1", "OBSERVED_RESULT": 15.7}
{"COMPOUND": "O=C1c2ccccc2[C@](Cc2ccccc2I)(C(=O)O)[C@H](c2ccc(CO)cc2)N1Cc1ccccc1", "OBSERVED_RESULT": 4.42}
{"COMPOUND": "CC(C)CNC(=O)[C@@H]1c2ccccc2C(=O)N(Cc2ccccc2)[C@H]1c1ccc(CO)cc1", "OBSERVED_RESULT": 1.49}
{"COMPOUND": "O=C1C2C=CC(C(O)c3cccc(O)c3)N(Nc3ccccc3F)C2C(=O)N1c1ccccc1 (stereo not drawn)", "OBSERVED_RESULT": 9.49}
{"COMPOUND": "CC(C)=CCN(C(=O)C#Cc1ccccc1)[C@H](CO)c1ccccc1", "OBSERVED_RESULT": 16.8}

# input for lookup
Entry [N-]=[N+]=NCc1ccccc1C[C@]1(C(=O)N2CCOCC2)N=C(c2ccc(OCCCO)cc2)O[C@H]1c1ccccc1CN=[N+]=[N-] has what z-score?
17.5

* * *

Each record here notes measured composite z-score.
- Test system: Lefty1
- PROTOCOL_NOTES: Lefty1 binders on small-molecule microarrays, primary screen, biochemical, small-molecule microarray, 635/667 nm fluorescence (AID 1139)
- CONDITION_NOTES: small-molecule microarray binding, fluorescence 635/667; higher = more signal
Give your answer as a number; write no unit.

{"COMPOUND": "C=C(COC)/C(=C/C[C@@H](OC(C)=O)c1ccccc1OCCO)c1cc(C(=O)OC)ccc1OC", "TGT": "Lefty1", "OBSERVED_RESULT": 0.624}
{"COMPOUND": "CC(C)C[C@@H]1NC(=O)[C@@]23C(=O)N[C@@H](Cc4ccccc4)C2[C@H](C)[C@@]2(C)O[C@H]2C3/C=C/C/C=C\\CNC(=O)[C@@H](CC(C)C)NC1=O (some centres not stated)", "TGT": "Lefty1", "OBSERVED_RESULT": 0.84}
{"COMPOUND": "COC(=O)[C@@]1(Cc2ccc(F)cc2)[C@H]2c3cc(C(=O)N4CCCC4)n(CCO)c3C[C@H]2CN1C(=O)c1ccccc1", "TGT": "Lefty1", "OBSERVED_RESULT": -0.0322}
{"COMPOUND": "CC(=O)c1ccc(C(O)C2C=CC3C(=O)N(C)C(=O)C3N2NC(=O)OC(C)(C)C)cc1 (configuration not stated)", "TGT": "Lefty1", "OBSERVED_RESULT": 0.337}

Entry CC(C)=CCN(C(=O)C#Cc1ccccc1)[C@H](CO)c1ccccc1 has what composite z-score?
0.743

Query C=CCC(OC(C)=O)[C@@H]1[C@@H](N(Cc2ccc(-c3ccccc3)cc2)C(=O)c2cccc3ccccc23)c2cc(OCCCO)ccc2N1C(=O)c1ccc2ccccc2c1 (some centres not stated) next
0.243

Query CCCC[C@@H](O)C1=C(COC)Cn2c(=O)n(-c3ccccc3)c(=O)n2[C@H]1CO next
-0.0726
